Hello, the source for this data is patent US8008547B2, in case you need it.

assay: Standard protocol for determination of kcat and KM (continuous spectrophotometric assay, Acetyl CoA hydrolysis at 235 nm); type: biochemical; conditions: purified protein; about 23° C.; pH 6.8; 0.2 mM acetyl CoA; glyphosate 0.125 to 10 mM
quantity-kind: Km (µM)
The reply should contain only the number, in µM.

INSERT INTO assay_data (molecule, readout_number) VALUES
  ('SEQ ID NO: 433: GAT polypeptide (protein, 9_4H8, GAT polypeptide) MIEVKPINAEDTYEIRHRILRPNQPLEACMYETDLLGGTFHLGGYYRGKLISIASFNQAEHPELEGQKQYQLRGMATLEGYREQKAGSTLIRHAEELLRKKGADLLWCNARTSASGYYKKLGFSEQGEVYDIPPVGPHILMYKKLT', 600),
  ('SEQ ID NO: 435: GAT polypeptide (protein, 9_9H7, GAT polypeptide) MIEVKPINAEDAYEIRHRILRPNQPLEACKYETDLLGSTFHLGGYYRGKLISIASFHQAEHPELEGQKQYQLRGMATLEEYREQKAGSTLIRHAEELLRKKGADLLWCNARTSASGYYKKLGFSEQGEVYDIPPVGPHILMYKKLT', 700);

Please turn your attention to the following entry.
Any idea what its Km is? The molecule is SEQ ID NO: 330: GAT polypeptide (protein, 15_12D6, GAT polypeptide) MIEVKPINAEDTYEIRHRILRPNQPLEACMYETDLLRGAFHLGGYYRGKLVSIASFHQAEHPELEGQKQYQLRGMATLEGYREQKAGSTLIRHAEELLRKKGADLLWCNARTSASGYYKKLGFSEQGEVYDTPPVGPHILMYKKLT
740
